- study.system: Histone-lysine N-methyltransferase EHMT2 (Homo sapiens)
- experiment.notes: qHTS Assay for Inhibitors of Histone Lysine Methyltransferase G9a; also: nearly all actives have a fitted effect of over 75% in size; also: potency is read from the fitted curve at half-maximal effect
- experimental.context: G9a H3K9 monomethylation, AlphaScreen, 2 h; series mostly up to 59 µM
The whole screen tested about 350,000 compounds, of which about 31,000 (8.9%) were called active. Roughly 15% stayed inconclusive and do not appear here. The full list was thinned out, with actives kept by preference.
reported.metric: Potency

COc1ccc(Nc2nc(-c3cccnc3)nc3ccccc23)cn1: 35.5 µM (active)
COc1cc(Nc2nc(-c3ccc(OC)c(OC)c3)nc3ccccc23)cc(OC)c1: inactive
COc1ccccc1Oc1nc(-c2cccnc2)nc2ccccc12: inactive
COc1cccc(NS(=O)(=O)c2ccc(-c3coc(C)n3)cc2)c1: inactive
COc1ccccc1C(=O)NC(=S)Nc1ccccc1N1CCCCC1: inactive

Query: Give the measured Potency for COCCNc1ccc(-c2n[nH]c(=O)c3ccccc23)cc1[N+](=O)[O-]
Response: inactive

Query: Give the measured Potency for CC1CN(C2CCN(C(=O)COc3ccccc3)CC2)CC(C)O1 (stereo unspecified)
Response: 8.91 µM (active)

Query: Give the measured Potency for CCC(=O)N1CCc2cc(S(=O)(=O)NC(CC(C)C)C(=O)NCCc3cccc(C)c3)ccc21 (stereo unspecified)
Response: inactive

Query: Give the measured Potency for CC1CCN(C(=O)Cn2c(=O)n(-c3ccc(Cl)cc3)c(=O)c3c4c(sc32)CCC4)CC1
Response: inactive

Query: Give the measured Potency for Cc1ccc(C2CC2C(=O)NN)cc1 (stereo unspecified)
Response: inactive

Query: Give the measured Potency for COc1ccc(OCC(=O)N2CCN(C(=O)COc3ccccc3)CC2)cc1
Response: inactive

FYI, the data here is from PubChem BioAssay AID504332.
